Molecular target: 5'-AMP-activated protein kinase catalytic subunit alpha-2 (Homo sapiens) (UniProt P54646);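 note: mean inhibition measured on the AMPK complex of alpha2, beta1 and gamma1 subunits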
Sequence (P54646 whole entry, looked up): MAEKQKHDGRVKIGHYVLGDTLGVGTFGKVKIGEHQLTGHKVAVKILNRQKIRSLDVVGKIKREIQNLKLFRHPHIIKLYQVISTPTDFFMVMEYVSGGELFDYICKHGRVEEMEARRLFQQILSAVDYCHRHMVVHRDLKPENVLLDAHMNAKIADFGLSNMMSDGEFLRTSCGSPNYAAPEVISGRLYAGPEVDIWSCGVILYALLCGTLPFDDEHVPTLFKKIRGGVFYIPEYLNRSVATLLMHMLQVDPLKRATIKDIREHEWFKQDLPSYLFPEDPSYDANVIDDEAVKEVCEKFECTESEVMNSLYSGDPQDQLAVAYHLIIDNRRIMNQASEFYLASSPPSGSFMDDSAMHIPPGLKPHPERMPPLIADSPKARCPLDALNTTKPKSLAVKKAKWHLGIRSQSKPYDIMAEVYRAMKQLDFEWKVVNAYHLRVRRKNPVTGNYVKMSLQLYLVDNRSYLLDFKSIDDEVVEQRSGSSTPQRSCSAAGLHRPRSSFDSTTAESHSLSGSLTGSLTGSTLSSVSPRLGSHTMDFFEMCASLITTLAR
Conditions: at 0.1 µM
Description: GSK_PKIS: AMPKA2 (A2B1G1) mean inhibition at 0.1 uM [Nanosyn]
Hi there, I'd appreciate the recorded inhibition for every entry that follows.
Numbers only, in %.

Below, each entry is followed by its recorded inhibition result.
smiles-str: FC(F)(F)c1cccc(-c2nn3ncccc3c2-c2ccnc(Nc3ccc4c(c3)OCCO4)n2)c1
readout-number: 0.93

smiles-str: O=C(O[C@H]1CN[C@H](C#Cc2cc3ncnc(Nc4ccc(Cc5ccccc5)cc4)c3s2)C1)N1CCOCC1
readout-number: -0.29

smiles-str: c1cc(-c2cnn3nc(N4CCOCC4)ccc23)nc(NC2CC2)n1
readout-number: -0.07

smiles-str: COc1cc2c(cc1Nc1nc(Nc3ccsc3C(N)=O)c3cc[nH]c3n1)N(C(=O)CN(C)C)CCC2(C)C
readout-number: 6.92

smiles-str: CCn1c(-c2nonc2N)nc2c(C#CC(C)(C)O)ncc(OC3CCNCC3)c21
readout-number: 12.1

For the 4 compounds below, give their inhibition values.
1. CC(C)(CO)CNC(=O)c1ccc2c(c1)/C(=N/Nc1ccc(S(N)(=O)=O)cc1)C(=O)N2
2. Cc1ccc2c(-c3ccnc(Nc4ccccc4)n3)c(-c3ccc(F)cc3)nn2n1
3. NC(=O)c1sc(-n2cnc3ccc(C(F)(F)F)cc32)cc1OCc1ccccc1Br
4. COC(=O)Nc1nc2ccc(Oc3ccc(NC(=O)Nc4cccc(Cl)c4)cc3)cc2[nH]1

Outgoing:
1: 6.91; 2: 0.59; 3: 3.14; 4: 1.29

----------
Biological target: ALK tyrosine kinase receptor (Homo sapiens)
Settings: at 0.1 µM
Description: GSK_PKIS: ALK mean inhibition at 0.1 uM [Nanosyn]
// F strictly below 2% in inhibition; T otherwise

smiles-str: CN1CCC(n2cnc(-c3ccc(F)cc3)c2-c2ccnc(N)n2)CC1
measured-on: ALK tyrosine kinase receptor (Homo sapiens)
answer-label: F
//
smiles-str: CS(=O)(=O)CCNCc1ccc(-c2ccc3ncnc(Nc4ccc(OCc5ccccc5)c(C(F)(F)F)c4)c3c2)o1
measured-on: ALK tyrosine kinase receptor (Homo sapiens)
answer-label: T
//
smiles-str: CNC(=O)c1cncc(/C=C/c2ccccc2Cl)c1
measured-on: ALK tyrosine kinase receptor (Homo sapiens)
answer-label: F
//
smiles-str: CNC(=O)c1cc(-c2ccc(F)cc2)cc(-c2ccc(S(=O)(=O)N3CCCC3)cc2)c1N
measured-on: ALK tyrosine kinase receptor (Homo sapiens)
answer-label: F
//
smiles-str: Nc1ncc(-c2cccc(S(N)(=O)=O)c2)c2scc(-c3ccc(F)c(Cl)c3)c12
measured-on: ALK tyrosine kinase receptor (Homo sapiens)
answer-label: T
//
smiles-str: c1ccc(COc2ccc(Nc3ncnc4ccc(-c5ccco5)cc34)cc2)cc1
measured-on: ALK tyrosine kinase receptor (Homo sapiens)
answer-label: F
//
smiles-str: Cc1ccc2c(-c3ccnc(Nc4ccccc4)n3)c(-c3ccc(F)cc3)nn2n1
measured-on: ALK tyrosine kinase receptor (Homo sapiens)
answer-label: T

Then this molecule:
Incoming: Assess whether reported inhibition for "COc1cc(N2CCN(C(C)C)CC2)ccc1Nc1nc(Nc2ccc(F)cc2C(N)=O)c2cc[nH]c2n1" sits at 2% or higher.
Outgoing: T

----------
Hi there, I'd appreciate the recorded inhibition for every entry that follows.
Molecular target: Serine/threonine-protein kinase Chk2 (Homo sapiens);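 note: reported value is the mean inhibition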
Details: at 1 µM
One number for each entry, in %.

smiles-str: [O-][S+]1CCN(Cc2ccc(-c3ccc4ncnc(Nc5ccc(OCc6cccc(F)c6)c(Cl)c5)c4c3)o2)CC1
measured-on: Serine/threonine-protein kinase Chk2 (Homo sapiens)
u: %
inhibition: 3.16

For the 7 compounds below, give their inhibition values.
1. O=C(O[C@H]1CN[C@H](C#Cc2cc3ncnc(Nc4ccc(Cc5ccccc5)cc4)c3s2)C1)N1CCOCC1
2. CCN(CC)S(=O)(=O)c1ccc(OC)c(Nc2ncc(-c3ccccc3)o2)c1
3. Fc1cccc(COc2ccc(Nc3ncnc4sc(-c5ccco5)cc34)cc2Cl)c1
4. Cc1ccc(O)cc1Nc1ccnc2cc(-c3ccccn3)ccc12
5. COc1ccc(-c2cc(-c3c[nH]nc3-c3ccccn3)ccn2)cc1
6. CS(=O)(=O)CCNCc1ccc(-c2ccc3ncnc(Nc4ccc(OCc5ccccc5)c(C(F)(F)F)c4)c3c2)o1
7. CS(=O)(=O)CCNCc1coc(-c2ccc3ncnc(Nc4ccc(OCc5ccccc5)cc4)c3c2)c1

Outgoing:
0.95
2.66
8.84
5.81
4.49
7.84
28.8

----------
Biological target: PAS domain-containing serine/threonine-protein kinase (Homo sapiens) (UniProt Q96RG2)
Sequence (Q96RG2 whole entry, the tested form may be a part): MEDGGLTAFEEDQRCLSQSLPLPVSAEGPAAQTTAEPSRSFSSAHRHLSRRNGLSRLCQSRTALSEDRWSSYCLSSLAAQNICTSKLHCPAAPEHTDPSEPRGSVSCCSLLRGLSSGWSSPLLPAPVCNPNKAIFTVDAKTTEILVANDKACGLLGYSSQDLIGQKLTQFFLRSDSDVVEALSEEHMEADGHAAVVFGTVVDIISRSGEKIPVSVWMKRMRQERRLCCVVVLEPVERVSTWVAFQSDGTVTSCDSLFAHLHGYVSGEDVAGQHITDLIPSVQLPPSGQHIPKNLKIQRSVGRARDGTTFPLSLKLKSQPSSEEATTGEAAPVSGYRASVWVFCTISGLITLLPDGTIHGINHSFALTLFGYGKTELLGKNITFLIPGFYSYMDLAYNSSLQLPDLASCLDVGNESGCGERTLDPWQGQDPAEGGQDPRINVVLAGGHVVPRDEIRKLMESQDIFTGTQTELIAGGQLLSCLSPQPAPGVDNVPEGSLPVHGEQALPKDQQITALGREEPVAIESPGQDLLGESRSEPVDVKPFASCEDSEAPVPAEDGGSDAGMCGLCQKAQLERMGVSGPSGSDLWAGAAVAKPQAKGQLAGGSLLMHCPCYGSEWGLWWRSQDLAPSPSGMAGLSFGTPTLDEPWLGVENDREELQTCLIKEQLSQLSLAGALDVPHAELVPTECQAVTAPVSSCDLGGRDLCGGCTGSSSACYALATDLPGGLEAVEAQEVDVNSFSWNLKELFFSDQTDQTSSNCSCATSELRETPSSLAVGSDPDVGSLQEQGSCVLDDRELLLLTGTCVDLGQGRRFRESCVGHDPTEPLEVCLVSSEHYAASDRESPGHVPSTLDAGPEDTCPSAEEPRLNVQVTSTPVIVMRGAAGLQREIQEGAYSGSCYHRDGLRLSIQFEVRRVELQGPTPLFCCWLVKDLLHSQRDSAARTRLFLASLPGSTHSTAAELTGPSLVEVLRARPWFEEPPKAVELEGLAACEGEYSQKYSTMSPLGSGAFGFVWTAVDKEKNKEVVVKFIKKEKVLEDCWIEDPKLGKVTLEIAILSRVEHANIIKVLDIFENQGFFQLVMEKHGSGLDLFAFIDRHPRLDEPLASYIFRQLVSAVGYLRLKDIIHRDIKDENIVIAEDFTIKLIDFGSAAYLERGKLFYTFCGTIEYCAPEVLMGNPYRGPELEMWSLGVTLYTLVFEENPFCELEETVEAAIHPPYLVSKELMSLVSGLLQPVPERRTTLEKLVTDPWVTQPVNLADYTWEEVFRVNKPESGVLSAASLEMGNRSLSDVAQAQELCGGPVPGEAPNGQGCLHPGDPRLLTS
Settings: at 0.1 µM
Description: GSK_PKIS: PASK mean inhibition at 0.1 uM [Nanosyn]
Hi there, I'd appreciate the recorded inhibition for every entry that follows.
Numbers only, in %.

Below, each entry is followed by its recorded inhibition result.
smiles-str: Cc1cccc(Nc2ncc(-c3ccccc3)o2)c1
inhibition (%): -0.74
--
smiles-str: CCn1c(-c2nonc2N)nc2ccccc21
inhibition (%): 1.01
--
smiles-str: CNC(=O)c1cc(-c2ccc(F)cc2)cc(-c2ccc(S(=O)(=O)N3CCCC3)cc2)c1N
inhibition (%): 0.47

For the 2 molecules below, give their inhibition values.
1. COc1ccc(-c2nn3ncccc3c2-c2ccnc(Nc3ccc4c(c3)OCCO4)n2)cc1
2. Fc1ccc(-c2nn3ccccc3c2-c2ccncc2)cc1

Outgoing:
1: 1.07; 2: -0.17

For the 6 molecules below, give their inhibition values.
1. CNC(=O)c1cncc(/C=C/c2ccccc2Cl)c1
2. CCn1cc(-c2ccnc3[nH]ccc23)c(-c2cccc(NC(=O)Nc3ccc(OCc4ccccc4)cc3)c2)n1
3. Cc1cccc2c1NC(=O)/C2=N\Nc1ccc(S(N)(=O)=O)cc1
4. CCn1c(-c2nonc2N)nc2cnc(Oc3cccc(NC(=O)c4ccc(N(C)C)cc4)c3)cc21
5. COc1ccc(-c2cc3c(N)ncnc3o2)cc1
6. COc1ccc(-c2cc(-c3c[nH]nc3-c3ccccn3)ccn2)cc1

Outgoing:
1: 1.8; 2: 0.94; 3: 0.5; 4: -0.49; 5: 1.26; 6: 1.23

----------
System: Tyrosine-protein kinase ABL1 (Homo sapiens), P00519 [Y253F]
Details: at 0.1 µM
Hi there, I'd appreciate the recorded inhibition for every entry that follows.
Numbers only, in %.

Below, each entry is followed by its recorded inhibition result.
molecule: CC1=C(C(=O)Nc2cc(Cl)c3[nH]ncc3c2)C(c2ccc(C(F)(F)F)cc2)CC(=O)N1 (stereo not given)
inhibition (%): 3.38

molecule: CN1CCC(n2cnc(-c3ccc(F)cc3)c2-c2ccnc(Nc3ccccc3)n2)CC1
inhibition (%): 3.47

molecule: CCN(CC)S(=O)(=O)c1ccc(OC)c(Nc2ncc(-c3ccccc3)o2)c1
inhibition (%): 9.09

molecule: CCCN(CCS(C)(=O)=O)Cc1ccc(-c2ccc3ncnc(Nc4ccc(OCc5cccc(F)c5)c(Cl)c4)c3c2)o1
inhibition (%): 3.73

For the 2 molecules below, give their inhibition values.
1. COc1cc(Nc2nccc(Nc3ccc4c(C)n[nH]c4c3)n2)cc(OC)c1OC
2. CNC(=O)c1cncc(/C=C/c2ccccc2Cl)c1

Outgoing:
1. 37.6
2. 3.01

For the 2 molecules below, give their inhibition values.
1. CC(C)COC(=O)c1ccc2c(c1)/C(=C/Nc1ccc(S(N)(=O)=O)cc1)C(=O)N2
2. COc1ccc(-c2oc3ncnc(N)c3c2-c2ccc(NC(=O)Nc3cc(C(F)(F)F)ccc3F)cc2)cc1

Outgoing:
1: 4.12; 2: 9.77

For the 2 molecules below, give their inhibition values.
1. CN1CCC(n2cnc(-c3ccc(F)cc3)c2-c2ccnc(N)n2)CC1
2. CS(=O)(=O)CCNCc1coc(-c2ccc3ncnc(Nc4ccc(OCc5ccccc5)cc4)c3c2)c1

Outgoing:
[1.88, 3.03]

----------
Molecular target: Platelet-derived growth factor receptor alpha (Homo sapiens)
Settings: at 0.1 µM
Description: GSK_PKIS: PDGFRA mean inhibition at 0.1 uM [Nanosyn]
// NOT MET strictly below 10% in inhibition; MET otherwise

smiles-str: NS(=O)(=O)c1ccc(N/N=C2\C(=O)Nc3ccc4ncccc4c32)cc1
answer-label: MET
--
smiles-str: Clc1ccc(-c2nn3ncccc3c2-c2ccnc(Nc3ccccc3)n2)cc1
answer-label: NOT MET
--
smiles-str: CS(=O)(=O)CCNCc1coc(-c2ccc3ncnc(Nc4ccc(OCc5ccccc5)cc4)c3c2)c1
answer-label: NOT MET
--
smiles-str: CCN(CC)S(=O)(=O)c1ccc(OC)c(Nc2ncc(-c3ccccc3)o2)c1
answer-label: MET

Incoming: Assess whether reported inhibition for "Fc1cccc(COc2ccc(Nc3ncnc4sc(-c5ccco5)cc34)cc2Cl)c1" sits at 10% or higher.
Outgoing: MET

Incoming: Assess whether reported inhibition for "CC(=O)Nc1cccc(C#Cc2cncnc2Nc2ccc(OCc3cccc(F)c3)c(Cl)c2)c1" sits at 10% or higher.
Outgoing: NOT MET

Incoming: Assess whether reported inhibition for "CC(=O)NCc1cccc(C#Cc2cncnc2Nc2ccc(OCc3cccc(F)c3)c(Cl)c2)c1" sits at 10% or higher.
Outgoing: NOT MET

Incoming: Assess whether reported inhibition for "COc1cc2c(cc1Nc1nc(Nc3ccsc3C(N)=O)c3cc[nH]c3n1)N(C(=O)CN(C)C)CCC2(C)C" sits at 10% or higher.
Outgoing: MET

Incoming: Assess whether reported inhibition for "COc1ccc(-c2cc(-c3c[nH]nc3-c3ccccn3)ccn2)cc1" sits at 10% or higher.
Outgoing: MET

Incoming: Assess whether reported inhibition for "COC(=O)Nc1nc2ccc(Oc3ccc(NC(=O)Nc4cccc(Cl)c4)cc3)cc2[nH]1" sits at 10% or higher.
Outgoing: MET

Incoming: Assess whether reported inhibition for "CCc1nn2ncccc2c1-c1ccnc(NC2CC2)n1" sits at 10% or higher.
Outgoing: NOT MET

Incoming: Assess whether reported inhibition for "COc1cccc(-n2ncc3c(N/N=C/c4ccc(F)cc4)ncnc32)c1" sits at 10% or higher.
Outgoing: MET

Incoming: Assess whether reported inhibition for "COC(=O)Nc1nc2ccc(S(=O)(=O)c3ccc(NC(=O)Nc4cc(C(F)(F)F)ccc4F)cc3)cc2[nH]1" sits at 10% or higher.
Outgoing: NOT MET

Incoming: Assess whether reported inhibition for "COc1cc(N2CCN(C(C)C)CC2)ccc1Nc1nc(Nc2ccc(F)cc2C(N)=O)c2cc[nH]c2n1" sits at 10% or higher.
Outgoing: NOT MET

Incoming: Assess whether reported inhibition for "c1ccc(COc2ccc(Nc3ncnc4ccc(-c5ccco5)cc34)cc2)cc1" sits at 10% or higher.
Outgoing: NOT MET

Incoming: Assess whether reported inhibition for "COC(=O)c1sc(-n2cnc3cc(OC)c(OC)cc32)cc1OCc1ccccc1C(F)(F)F" sits at 10% or higher.
Outgoing: MET

Incoming: Assess whether reported inhibition for "COc1cc(Nc2nccc(Nc3ccc4c(C)n[nH]c4c3)n2)cc(OC)c1OC" sits at 10% or higher.
Outgoing: MET

Incoming: Assess whether reported inhibition for "CS(=O)(=O)CCNCc1ccc(-c2ccc3ncnc(Nc4ccc(OCc5ccccc5)c(C(F)(F)F)c4)c3c2)o1" sits at 10% or higher.
Outgoing: NOT MET

Incoming: Assess whether reported inhibition for "CCNC(=O)O[C@H]1CN[C@H](C#Cc2cc3ncnc(Nc4ccc(OCc5cccc(F)c5)c(Cl)c4)c3s2)C1" sits at 10% or higher.
Outgoing: NOT MET
